Recorded values, source ChEMBL document CHEMBL1156438.

- EXPERIMENT: Antiinflammatory activity in human polymorphonuclear leukocytes assessed as inhibition of n-formylmethionylleucylphenylalanine-stimulated transendothelial migration after 15 mins
- MEASUREMENT CONTEXT: 0.25 h
RESULT TYPE: EC50 (nM)

CC/C=C\C[C@H](O)/C=C/C=C\C=C\C=C\[C@@H](O)[C@@H](O)C/C=C\CCC(=O)O
30
CC/C=C\C[C@@H](O)/C=C/C=C\C=C\C=C\[C@@H](O)[C@@H](O)C/C=C\CCC(=O)O
30
